# Tested on: SW48 human colorectal cancer cells
# method.summary: Calculated free drug potency in SW48 cell assay, corrected with media free fraction (Example C)
# Assay type: cell-based
# condition.description: Homo sapiens, SW48, SW48 pCC50 corrected with measured free fraction in cell assay media
Exam item: assign T to entries whose CC50 is below 500 nM and F to entries at or above 500 nM. Note that a value of exactly 500 nM receives F.

molecule	target.entity	group
Cc1nc2cc(S(=O)(=O)N(C)c3ccc([C@H]4CCC[C@@H](COc5ccc(C(F)(F)F)cc5O)[C@@H]4C(=O)O)cc3)ccc2n1C	SW48 human colorectal cancer cells	T
Cc1nc2cc(S(=O)(=O)N(C)c3ccc([C@H]4C[C@@H](C#N)C[C@@H](C(=O)Nc5ccc(C(F)(F)F)cc5F)[C@@H]4C(=O)O)cc3)ccc2n1C (single isomer, unassigned)	SW48 human colorectal cancer cells	T
Cc1nc2cc(S(=O)(=O)N(C)c3ccc([C@@H]4CC(F)(F)C[C@H](C(=O)Nc5ccc(C(F)(F)F)cc5F)[C@H]4C(=O)O)cc3)ccc2n1C (single isomer, unassigned)	SW48 human colorectal cancer cells	F
Cc1nc2cc(S(=O)(=O)N(C)c3ccc([C@H]4C[C@H](N5CC[C@@H](F)C5)C[C@@H](C(=O)Nc5ccc(C(F)(F)F)cc5F)[C@@H]4C(=O)O)cc3)ccc2n1C (stereo in doubt)	SW48 human colorectal cancer cells	T
Cc1nc2cc(S(=O)(=O)N(C)c3ccc([C@H]4CC(F)(F)C[C@@H](C(=O)Nc5ccc(C(F)(F)F)cc5F)[C@@H]4C(=O)O)cc3)ccc2n1C (relative stereo)	SW48 human colorectal cancer cells	T

* * *

# Tested on: SW48 human colorectal cancer cells (MSI-H cancer cells)
# method.summary: SW48 cell viability, CellTiter-Glo, 120 hours (Example B)
# condition.description: Homo sapiens, SW48, 120 h, read-out: SW48 pCC50, SW48 cell viability, 120 hours incubation (converted); Table 2
Exam item: assign TRUE to entries whose CC50 is below 4000 nM and FALSE to entries at or above 4000 nM. Note that a value of exactly 4000 nM receives FALSE.

compound	group
Cc1nc2cc(S(=O)(=O)N(C)c3ccc([C@H]4C[C@@H](OCC5CC6CCC(C5)O6)C[C@@H](C(=O)Nc5ccc(C(F)(F)F)cc5F)[C@@H]4C(=O)O)cc3)ccc2n1C (single isomer, unassigned) [Example 360]	TRUE
CN(c1ccc([C@H]2CCC[C@@H](C(=O)Nc3ccc(C(F)(F)F)cc3F)[C@@H]2C(=O)O)cc1)S(=O)(=O)c1cccc(C2OCCO2)c1 [Example 118]	TRUE
CCO[C@@H]1C[C@H](c2ccc(N(C)S(=O)(=O)c3cnc4c(c3)nc(C)n4C)cc2)[C@@H](C(=O)O)[C@H](C(=O)Nc2ccc(C(F)(F)F)cc2F)C1 [Example 141]	TRUE
CCO[C@@H]1C[C@H](c2ccc(N(C)S(=O)(=O)c3ccc4c(c3)nc3n4CCCC3)cc2)[C@@H](C(=O)O)[C@H](C(=O)Nc2ccc(C(F)(F)F)cc2F)C1 [Example 279]	TRUE
CN(C)CCc1nc2cc(S(=O)(=O)N(C)c3ccc([C@H]4CCC[C@@H](COc5ccc(C(F)(F)F)cc5)[C@@H]4C(=O)O)cc3)ccc2n1C [Example 275]	FALSE
Cc1nc2cc(S(=O)(=O)N(C)c3ccc([C@@H]4C[C@@H](N5CCCC(F)(F)C5)C[C@H](C(=O)Nc5ccc(C(F)(F)F)cc5F)[C@H]4C(=O)O)cc3)ccc2n1C (stereo in doubt) [Example 362]	FALSE
Nc1ccccc1-c1ccc([C@H]2CCC[C@@H](C(=O)Nc3ccc(C(F)(F)F)cc3F)[C@@H]2C(=O)O)cc1 [Example 24]	FALSE
Cc1nc2cc(S(=O)(=O)N(C)c3ccc([C@H]4C[C@H](NCC(F)(F)F)C[C@@H](C(=O)Nc5ccc(C(F)(F)F)cc5F)[C@@H]4C(=O)O)cc3)ccc2n1C (stereo in doubt) [Example 336]	TRUE
CN(c1ccc([C@H]2CCC[C@@H](COc3ccc(C(F)(F)F)cc3)[C@@H]2C(=O)O)cc1)S(=O)(=O)c1ccc2c(c1)nc(CCN)n2C [Example 273]	FALSE
O=C(O)[C@@H]1[C@@H](c2ccc(-c3cccs3)cc2)CCC[C@H]1C(=O)Nc1ccc(C(F)(F)F)cc1F [Example 31]	FALSE
N#Cc1cc([C@H]2CCC[C@@H](C(=O)Nc3ccc(C(F)(F)F)cc3F)[C@@H]2C(=O)O)ccc1Br (single isomer, unassigned) [Example 230]	FALSE
CC(=O)N1C[C@H](c2ccc(N(C)S(=O)(=O)c3ccc4c(c3)nc(C)n4C)cc2)[C@@H](C(=O)O)[C@H](C(=O)Nc2ccc(C(F)(F)F)cc2F)C1 (stereo in doubt) [Example 310]	TRUE
CN1CCN(C)c2cc(S(=O)(=O)N(C)c3ccc([C@H]4CCC[C@@H](C(=O)Nc5ccc(C(F)(F)F)cc5F)[C@@H]4C(=O)O)cc3)ccc21 [Example 123]	TRUE
Cc1nc2cc(S(=O)(=O)N(C)c3ccc([C@H]4C[C@@H](OCC5CC5)C[C@@H](C(=O)Nc5ccc(C(F)(F)F)cc5F)[C@@H]4C(=O)O)cc3)ccc2n1C (stereo in doubt) [Example 314]	TRUE
Cc1nc2cc(S(=O)(=O)N(C)c3ccc([C@H]4CCC[C@@H](C(=O)Nc5ccc(C(C)(C)O)cc5F)[C@@H]4C(=O)O)cc3)ccc2n1C [Example 181]	TRUE
COc1cc(S(=O)(=O)N(C)c2ccc([C@H]3CCC[C@@H](C(=O)Nc4ccc(C(F)(F)F)cc4F)[C@@H]3C(=O)O)cc2)ccc1Br [Example 136]	TRUE
Cc1nc2cc(S(=O)(=O)N(C)c3ccc([C@H]4CCC[C@@H](C(=O)N[C@H]5CC[C@H](C(F)(F)F)CC5)[C@@H]4C(=O)O)cc3)ccc2n1C [Example 177]	TRUE
CCO[C@@H]1C[C@H](c2ccc(N(C)S(=O)(=O)c3ccc4c(c3)nc(CO)n4C)cc2)[C@@H](C(=O)O)[C@H](C(=O)Nc2ccc(C(F)(F)F)cc2F)C1 [Example 373]	TRUE
CN(c1ccc([C@H]2CCC[C@@H](C(=O)Nc3ccc(C(F)(F)F)cc3F)[C@@H]2C(=O)O)cc1)S(=O)(=O)c1ccc(C2CCN(C(=O)OC(C)(C)C)CC2)cc1 [Example 115]	TRUE
CC(=O)N(C)[C@@H]1C[C@H](C(=O)Nc2ccc(C(F)(F)F)cc2F)[C@@H](C(=O)O)[C@H](c2ccc(N(C)S(=O)(=O)c3ccc4c(c3)nc(C)n4C)cc2)C1 (stereo in doubt) [Example 291]	FALSE
